- Test system: Mus musculus
- procedure-summary: Mean survival time of mice (Mus musculus) infected with Plasmodium berghei after administration of compound at the dose of 20 mg/kg
- Format: functional
metric: Mean survival time (days)
Give just the number in days; leave the unit off.

Record `CC(C)(C)OOCN1CCOCC1` . Reported Mean survival time: 6.8

Record `CC(C)(C)OOCN1CCCC1` . Reported Mean survival time: 5.4

Record CC(C)=CCCC(C)CCN(COOC(C)(C)C)Cc1ccccc1 (configuration not stated) . Reported Mean survival time: 5.2

Record C[C@@H]1CC[C@H]2[C@@H](C)C(=O)O[C@@H]3O[C@@]4(C)CC[C@@H]1[C@]32OO4 [ARTEMISININ] . Reported Mean survival time: 10.8

Record `CC(C)(C)OOCN(C1CCCCC1)C1CCCCC1` . Reported Mean survival time: 7.6

Record `COC1=CC=C2[C@H]3Cc4ccc(OC)c5c4[C@@]2(CCN3COOC(C)(C)C)[C@H]1O5` . Reported Mean survival time: 5.2

Record `CC(C)(C)OOCN(CCO)CCO` . Reported Mean survival time: 10.2

Record CC(C)=CCCC(C)CCN(CCO)COOC(C)(C)C (configuration not stated) . Reported Mean survival time: 6.2

Record `CC(C)(C)OOCN(Cc1ccccc1)Cc1cccs1` . Reported Mean survival time: 5.8

Record `CC(C)(C)OOCN(Cc1ccccc1)Cc1ccco1` . Reported Mean survival time: 6.4

Record `CCN(CC)COOC(C)(C)C` . Reported Mean survival time: 7.2

Record `CC(C)(C)OOCN1CCCCC1` . Reported Mean survival time: 5.2

* * *

Assignment: determine reported IC50 for the given compounds.
- System: Plasmodium falciparum
- procedure-summary: In vitro total parasite growth inhibition for chloroquine-sensitive Plasmodium falciparum FJB D9
- Format: functional, organism-based

Record `CC(C)(C)OOCN1CCCC1` . Reported IC50: > 25 uM well-1

Record `CCN(CC)COOC(C)(C)C` . Reported IC50: > 25 uM well-1

Record `CC(C)(C)OOCN(CCO)CCO` . Reported IC50: > 25 uM well-1
